Cited source: PubChem BioAssay AID1851

target: Cytochrome P450 2D6 (Homo sapiens); assay: Cytochrome panel assay with activity outcomes; details: recombinant CYP, pro-luciferin dealkylation, luminescence, p450-cyp2d6; series mostly up to 57.1 µM
Out of some 16,000 compounds screened, about 2,600 (16%) were called active. Inconclusive results (about 20%) are left out. Calls come from the whole dose curve; as a rule, active = well fitted curve in the direction sought with a large enough effect; inconclusive = small, poorly fitted or top-dose-only effect, or effect the other way; inactive = no such curve, though single readings can be large or run the other way. Not all results are given here.
In this exercise, the only acceptable responses are T for active, F for inactive

molecule	group label
Cc1ccc(NC(=O)CSCC(=O)Nc2ccc(N3CCOCC3)c(Cl)c2)cc1	T
O=C(O)/C=C/c1cn(-c2ncc(C(F)(F)F)cc2Cl)c2ccccc12	F
CCn1c(SCC(=O)Nc2nc3ccc(C)cc3s2)nc2c(c1=O)SC(C)C2 (stereo unspecified)	F
COc1ccc(Oc2ncc3nc(-c4cc(F)cc(F)c4)c(=O)n(C)c3n2)cc1	F
Cc1cc(C(=O)CC#N)c(C)n1CC(F)(F)F	F

Next:
### Prompt // param item: Cc1cccc(Nc2ccncc2S(=O)(=O)NC(=O)NC(C)C)c1 ; yields the recorded call
### Response F

* * *

target: Cytochrome P450 2D6 (Homo sapiens); assay: Cytochrome panel assay with activity outcomes; details: recombinant CYP, pro-luciferin dealkylation, luminescence, p450-cyp2d6; series mostly up to 57.1 µM; for activity, negative = inhibition: % is set by controls: 0 for no effect and ±100 for the full control effect
The whole screen tested about 16,000 compounds, of which about 2,600 (16%) were called active. Roughly 20% stayed inconclusive and do not appear here. The list is a sample of the results.
reported endpoint: activity, negative = inhibition

Please review the following examples before continuing.
smi	activity, negative = inhibition
COC(=O)C/C=C\[C@@H](C)[C@@H]1C=C[C@H](OC(C)=O)[C@H](COC(C)=O)O1	13.8% [at 11.4 µM] (inactive)
NC(=O)Nc1n[nH]c(-c2ccccc2)n1	9.86% [at 11.4 µM] (inactive)
O=S(=O)(O)c1ccc2c(N=Nc3cccc4ccccc34)c(O)c(S(=O)(=O)O)cc2c1	5.03% [at 11.4 µM] (inactive)
c1ccc2c(c1)c1ccccc1n2Cn1c2ccccc2c2ccccc21	-12.9% [at 11.4 µM] (inactive)
Cn1c(=O)c2c(nc(Cc3ccccc3)n2CC(=O)O)n(C)c1=O	3.84% [at 11.4 µM] (inactive)

For this compound ( Cc1ccc(S(=O)(=O)N[C@H]2COC(=O)C/C=C\[C@H](C)[C@@H](NS(=O)(=O)c3ccc(C)cc3)COC(=O)C/C=C\[C@@H]2C)cc1 ), measured activity, negative = inhibition is 8.84% [at 11.4 µM] (inactive)

For this compound ( CCOC(=O)[C@]1(CC(=O)O)CCCC1=O ), measured activity, negative = inhibition is -6.09% [at 11.4 µM] (inactive)

For this compound ( CC(=O)OCC(=O)[C@]12OC(C)(C)O[C@@H]1C[C@H]1[C@H]3CC=C4C[C@@H](O)CC[C@]4(C)[C@H]3CC[C@]12C ), measured activity, negative = inhibition is 25.3% [at 11.4 µM] (inactive)

For this compound ( O=S1(=O)CCN(c2ccccc2CC(c2c[nH]c3ccccc23)c2c[nH]c3ccccc23)CC1 ), measured activity, negative = inhibition is -18% [at 11.4 µM] (inactive)

* * *

Target: Cytochrome P450 2D6 (Homo sapiens) (UniProt P10635)
Sequence (P10635 whole entry, looked up): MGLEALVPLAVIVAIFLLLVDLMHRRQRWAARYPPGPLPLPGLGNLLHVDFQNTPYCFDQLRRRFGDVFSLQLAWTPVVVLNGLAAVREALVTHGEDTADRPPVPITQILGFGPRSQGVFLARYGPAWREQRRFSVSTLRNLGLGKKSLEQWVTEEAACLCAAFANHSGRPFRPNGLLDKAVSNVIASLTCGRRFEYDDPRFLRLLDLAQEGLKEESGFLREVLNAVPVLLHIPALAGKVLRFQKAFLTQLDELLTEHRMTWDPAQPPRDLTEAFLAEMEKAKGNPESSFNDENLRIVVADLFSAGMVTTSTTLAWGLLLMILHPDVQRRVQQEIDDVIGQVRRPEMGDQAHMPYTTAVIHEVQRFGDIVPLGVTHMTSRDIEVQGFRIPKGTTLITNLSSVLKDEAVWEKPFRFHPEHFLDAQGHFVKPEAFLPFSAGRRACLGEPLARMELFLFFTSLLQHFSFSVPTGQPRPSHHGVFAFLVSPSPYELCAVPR
Experiment: Cytochrome panel assay with activity outcomes
Conditions: recombinant CYP, pro-luciferin dealkylation, luminescence, p450-cyp2d6; series mostly up to 57.1 µM
Experimental: The P450 gene superfamily is involved in the metabolism and clearance of xenobiotics. This assay used various human CYP P450 isozymes to measure the dealkylation of various pro-luciferin substrates to luciferin. The luciferin is then measured by luminescence after the addition of a luciferase detection reagent. […] Inhibitors and some substrates limit the production of luciferin, and decrease measured luminescence. […] 8, Detection, 1 sec, ViewLux luminescent read […]
The campaign covered roughly 16,000 compounds. About 2,600 (16%) were called active. Roughly 20% stayed inconclusive and do not appear here. Calls come from the whole dose curve; as a rule, active = well fitted curve in the direction sought with a large enough effect; inconclusive = small, poorly fitted or top-dose-only effect, or effect the other way; inactive = no such curve, though single readings can be large or run the other way. The list is a sample of the results.
In this exercise, the only acceptable responses are active, inactive

Check out these entries, answers already filled in.
smi	tested target	group label
Cc1ccc(NC(=O)C2CCN(S(=O)(=O)c3c(C)n[nH]c3C)CC2)nc1	Cytochrome P450 2D6 (Homo sapiens) (UniProt P10635)	inactive
COc1ccc([C@@H]2CC(=O)c3c(O)cc(O[C@H]4O[C@@H](CO[C@H]5O[C@@H](C)[C@@H](O)[C@@H](O)[C@@H]5O)[C@@H](O)[C@@H](O)[C@@H]4O)cc3O2)cc1O	Cytochrome P450 2D6 (Homo sapiens) (UniProt P10635)	inactive
CCCCc1cc2ccccc2c(OCCN(C)C)n1	Cytochrome P450 2D6 (Homo sapiens) (UniProt P10635)	active
Cc1oc(-c2cccc(Cl)c2)[n+]([O-])c1C	Cytochrome P450 2D6 (Homo sapiens) (UniProt P10635)	inactive

Next:
### Prompt // param item: CCCCc1c(O)nc(SCCN(C)C)n(-c2ccccc2)c1=O ; yields the recorded call
### Response inactive

* * *

target: Cytochrome P450 2D6 (Homo sapiens); assay: Cytochrome panel assay with activity outcomes; details: recombinant CYP, pro-luciferin dealkylation, luminescence, p450-cyp2d6; series mostly up to 57.1 µM
The whole screen tested about 16,000 compounds, of which about 2,600 (16%) were called active. About 20% were inconclusive and are not listed. These entries were drawn from the full list.
reported endpoint: AC50

Please review the following examples before continuing.
smi	AC50
O=C(c1cccs1)n1nc(-c2ccc(Cl)cc2)nc1NCc1ccco1	inactive
Cc1cc(NC(=O)CSc2nnc(-c3ccccc3)n2Cc2ccco2)no1	inactive
COCCn1c(Cc2ccccc2)nnc1SCc1nc2ccccc2c(=O)[nH]1	inactive
CC1CCN(C(=O)C2CCN(S(=O)(=O)c3cccc4nonc34)CC2)CC1	inactive
Cn1c(=O)c(-c2cccc(C#N)c2)nc2cnc(Oc3ccccc3)nc21	inactive
c1ccc(SCc2nc3ccccc3[nH]2)cc1	10 µM (active)
O=C(O)CC[C@@H](C(=O)O)N1C(=O)c2ccccc2C1=O	inactive
CN(C)c1ccc(-c2nccc(Nc3ccc(F)cc3)n2)cc1	20 µM (active)
Cc1cc(C)nc(SCc2nnc(SCC(N)=O)n2Cc2ccco2)n1	inactive
COc1cc(NC(=O)C2CCN(S(=O)(=O)c3cccc4nonc34)CC2)cc(OC)c1	0.562 µM (active)

Shifting focus to the molecule that follows.
For this molecule ( c1ccc(-c2nnc(SCc3nc4ccccc4[nH]3)n2Cc2ccco2)cc1 ), measured AC50 is 6.31 µM (active)

* * *

target: Cytochrome P450 2D6 (Homo sapiens) (UniProt P10635); assay: Cytochrome panel assay with activity outcomes; conditions: recombinant CYP, pro-luciferin dealkylation, luminescence, p450-cyp2d6; series mostly up to 57.1 µM; for activity, negative = inhibition: % is set by controls: 0 for no effect and ±100 for the full control effect
The whole screen tested about 16,000 compounds, of which about 2,600 (16%) were called active. Another 20% or so got no clear call; they are omitted. Not all results are given here.
The entries below are paired with their reported activity, negative = inhibition.

smi	reported endpoint	result
Cc1onc(-c2c(F)cccc2Cl)c1C(=O)N[C@@H]1C(=O)N2[C@H]1SC(C)(C)[C@H]2C(=O)O	activity, negative = inhibition	16.2% [at 11.4 µM] (inactive)
C=C(Br)CN(C)CC(=C)Br	activity, negative = inhibition	9.77% [at 11.4 µM] (inactive)
O=C1/C(=C/c2cccnc2)SC(=S)N1Cc1ccco1	activity, negative = inhibition	-20.9% [at 11.4 µM] (inactive)
CC(CO)(CO)Nc1ncnc2ccccc12	activity, negative = inhibition	-4.58% [at 11.4 µM] (inactive)
COC(=O)[C@H](C)NC(=O)C/C=C\[C@@H](C)[C@H]1C=C[C@H](O)[C@@H](CO)O1	activity, negative = inhibition	3.59% [at 11.4 µM] (inactive)

For this compound ( Nc1cccc(OCc2nc(N)nc(N)c2-c2ccc(Cl)cc2)c1 ), measured activity, negative = inhibition is -14.7% [at 11.4 µM] (inactive)

For this compound ( CN(N=O)c1ccc(/C=C\c2ccnc3ccccc23)cc1 ), measured activity, negative = inhibition is -11% [at 11.4 µM] (inactive)

For this compound ( CON(C)C(=O)c1nnc2c(n1)[nH]c1ccccc12 ), measured activity, negative = inhibition is -2.74% [at 11.4 µM] (inactive)

* * *

target: Cytochrome P450 2D6 (Homo sapiens); experiment: Cytochrome panel assay with activity outcomes; settings: recombinant CYP, pro-luciferin dealkylation, luminescence, p450-cyp2d6; series mostly up to 57.1 µM
In all, about 16,000 compounds went through this assay and about 2,600 (16%) were called active. Another 20% or so got no clear call; they are omitted. Calls come from the whole dose curve; as a rule, active = well fitted curve in the direction sought with a large enough effect; inconclusive = small, poorly fitted or top-dose-only effect, or effect the other way; inactive = no such curve, though single readings can be large or run the other way. Not all results are given here.
In this exercise, the only acceptable responses are True (active), False (inactive)

Check out these entries, answers already filled in.
molecule	group label
NC[C@@H](O)CSCc1ccc(Cl)cc1	True
COc1cc(C(=O)NC(=S)Nc2cccc(-c3cc4ccccc4oc3=O)c2)cc(OC)c1OC	False
Clc1ccc(CSC2=NCCN2)cc1Cl	True
C[N@@+]1(Cc2ccc(Cl)c(Cl)c2)CCC[C@@H]1c1ccc[n+](Cc2ccc(Cl)c(Cl)c2)c1	True
Cc1ccc(CNC(=O)Cc2csc(Nc3nc(=S)[nH]c4ccccc34)n2)cc1	False
CN1C2C=C(N(CCc3c[nH]c4ccccc34)C(=O)c3ccc(Cl)cc3)CC1CC2 (stereo not given)	True
COc1ccccc1N1CCN(CCn2c(=O)[nH]c3c([nH]c4ccccc43)c2=O)CC1	False
COc1ccc(C(=O)NC2CCN(C(=S)Nc3cccc(C)c3)CC2)cc1	False
Cc1ccccc1C(=O)Nc1cccc(NC(=S)NC(=O)c2cccs2)c1	False

Next:
### Prompt // param item: O=C(Oc1ccccc1)N1CCC2(CCCN(c3ccc(-c4ccccc4)cc3)C2)CC1 ; yields the recorded call
### Response False
